Entries and their % residual binding values follow.
- Target: T1, biotinylated CD32bECDHis (human, UniProt P31994 43-223, limits assumed, biotinylated (sites not given))
- T1 sequence (looked up): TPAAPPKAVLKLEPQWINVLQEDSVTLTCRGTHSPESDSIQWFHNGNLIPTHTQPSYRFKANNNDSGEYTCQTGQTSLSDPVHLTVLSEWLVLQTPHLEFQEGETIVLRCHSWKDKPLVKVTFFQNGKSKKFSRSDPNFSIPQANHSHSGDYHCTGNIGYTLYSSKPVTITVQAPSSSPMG
- Experiment summary: competition ELISA, competitor 026
Entry rule: numbers only, all in %.

As a guide, the following entries are already answered.
Problem: State, in one line, measured % residual binding of Antibody 026 (antibody, V domains shown, Human antibody; also called HuMab 026) VH: QVQLVQSGAEVKKPGASVKVSCKASGYTFTSYGLSWVRQAPGQGLEWMGWISAYNGNTNYAQKLQGRVTMTTDTSTSTAYMDLRSLRSDDTAVYYCARDSAAHGMDVWGQGTTVTVSS VL: DIQMTQSPSSLSASVGDRVTITCRASQGISSWLAWYQQKPEKAPKSLIYAASSLQSGVPSRFSGSRSGTDFTLTISSLQPEDFATYYCQQYNSYPYTFGQGTKLEIKR
Result: 4

Problem: Read the entry Antibody 020 (antibody, V domains shown, also called HuMab 020) VH: QVQLVQSGGEVKKPGASVKVSCKTSGYTFTSYGISWVRQAPGQGLEWMGWISAYNGNTKYAQKLQGRLTMTTDTSTTTAYMELRSLRSDDTAVYYCARDSAAHGMDVWGQGTTVTVSS VL: DIQMTQSPSSLSASVGDRVTITCRASQGISSWLAWYQQKPEKAPKSLIYAASSLQSGVPSRFRGSGSGTDFTLTISSLQPEDFATYYCQQYNSYPYTFGQGTKLEIKR and write its reported % residual binding.
Result: 28

Problem: Given Antibody 053 (antibody, human IgG1, V domains shown, Human antibody; also called HuMab 053) VH: QVQLVESGGGVVQPGRSLRLSCAVSGFTFRSYGMHWVRQAPGKGLEWVAVIWYDGSIKYYADSVKGRFTISRDNSKNTLYLQMNSLRAEDTAVYFCAREGGRDAFDIWGQGTMVTVSS VL: AVQLTQSPSSLSASVGDRVTITCRASQGISSALAWYQQKPGKAPKLLIYDASSLESGVPSRFSGSGSGTDFTLTISSLQPEDFATYCCQQFNSYPHTFGGGTKVEIKR , respond with its % residual binding.
Result: 26

Problem: Please list % residual binding recorded for the binder Antibody 028 (antibody, V domains shown, List 1 gives no VL for antibody 028; The VL is therefore uncertain; also called HuMab 028) VH: QVQVVQSGAEVKKPGASVKVSCKTSGYTFTSYGISWVRQAPGQGLEWMGWISAYNGNTKYAQKLQGRLTMTTDTSTTTAYMELRSLRSDDTAVYYCARDSAAHGMDVWGQGTTVSVSS VL: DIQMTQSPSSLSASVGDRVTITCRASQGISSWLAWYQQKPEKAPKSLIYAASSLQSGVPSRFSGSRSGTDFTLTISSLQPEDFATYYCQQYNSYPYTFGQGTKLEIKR
Result: 32

# next binder below
Problem: Indicate its recorded % residual binding; the binder in question is Antibody 063 (antibody, human IgG1, V domains shown, Human antibody; also called HuMab 063) VH: EVQLLESGGGLVQPGGSLRLSCAASGFTFSSYAMSWVRQAPGKGLEWVSAISDSGGSTYYADSVKGRFTISRDNSKNTLYLQMNSLRAEDTAAYYCAKEIAVALFDYWGQGTLVTVSS VL: EIVLTQSPATLSLSPGERATLSCRASQSVSSYLAWYQQKPGQAPRLLIYDASNRATGIPARFSGSGSGTDFTLTISSLEPEDFAVYYCQQRSSWPPYTFGQGTKLEIKR
Result: 70
